- experimental-target: SARS-CoV-2 wild-type spike (S) protein (SARS-CoV-2, WT (MN908947), UniProt P0DTC2)
- test-summary: cell-based or functional assay
value-kind: pseudovirus IC50(μg/ml), Wild-type
Answer with the value and then the unit.

IN: What value of pseudovirus IC50(μg/ml), Wild-type has been reported for the following binder? XGv289 (antibody, V domains shown) VH: QVQLVQSGAEVKKPGASLKVSCRASGYTFTSHFIHWVRQAPGQGLEWMGIINPSGGASYAQNFRDRVTMTTDPSTSTVYMELGSLRSEDTAVYYCARAEGSSWLGWFDPWGQGTLVTVSS VL: QSVLTQPPSASGTPGQRVTIPCSGSSSNIGNNYVYWYQQLPGTAPKLLVYGNNQRPSGVPDRFSVSKSGTSASLAISGLRSEDEADYYCAAWDDGLSGSGWVFGGGTKLTVL
OUT: 0.00928 µg/mL
